These data points were gathered from PubChem BioAssay.

# key: entry, value: inhibition
- assayRemarks: LFS_MB_2R medulloblastoma cell growth inhibition, synergistic combos for chromothripsis tumors, cisplatin combos (AID 1671457);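 further: cells exposed to compound for four days before readout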
- settings: LFS_MB_2R medulloblastoma cells, at 0.5 µM, hits give high values
State the answer as a number, implicitly in %.

• O=C(Nc1ccncc1)c1cc([N+](=O)[O-])ccc1Cl = -23.4
• CC(C)N=c1cc2n(-c3ccc(Cl)cc3)c3ccccc3nc-2cc1Nc1ccc(Cl)cc1 = -8.06
• CCc1c2c(nc3ccc(O)cc13)-c1cc3c(c(=O)n1C2)COC(=O)[C@]3(O)CC = 13.2
• O=c1ncccn1[C@@H]1O[C@H](CO)[C@@H](O)[C@H]1O = -6.18

// moving on: another record for inhibition
Query :: Which inhibition reading was recorded for the compound O=c1cc(-c2cccc3c2Sc2ccccc2S3)oc(N2CCOCC2)c1 ?
Result :: -22.3
